System: H1975 cells (EGFR L858R/T790M)
protocol_description: Inhibitory activity on cell proliferation, H1975
Assay type: cell-based
conditions_used: Homo sapiens, NCI-H1975; H1975, 72 hours; read-out: Inhibitory activity on proliferation of cells (IC50, μM) H1975
assay_metric: IC50 (µM)

• C=CC(=O)Nc1cccc(-n2c(=O)c(-c3ccccc3)nc3cnc(Nc4ccc(N5CCC(N6CCN(C)CC6)CC5)cc4OC)nc32)c1 = 0.031
• COc1cc(N2CCN(C)CC2)ccc1Nc1ncc2nc(-c3ccccc3)c(=O)n(-c3cccc(N)c3)c2n1 = 5.34
• C=CC(=O)N1CCC[C@H](Cn2c(=O)cnc3cnc(Nc4ccc(N5CCN(C)CC5)cc4OC)nc32)C1 = 1.42
• C=CC(=O)N1CC[C@H](n2c(=O)c(-c3ccccc3)nc3cnc(Nc4ccc(N(C)CCN(C)C)c(OC)c4)nc32)C1 = 1.19
• C=CC(=O)Nc1cc(Nc2nccc(-c3cn(C)c4ccccc34)n2)c(OC)cc1N(C)CCN(C)C [AZD9291, reference compound] = 0.016
• C=CC(=O)Nc1cccc(-n2c(=O)c(-c3ccc(OC)cc3)nc3cnc(Nc4ccc(N5CCN(C)CC5)cc4OC)nc32)c1 = 1.06
• C=CC(=O)Nc1cccc(-n2c(=O)c(-c3cc(F)cc(F)c3)nc3cnc(Nc4ccc(N5CCN(C)CC5)cc4OC)nc32)c1 = 0.262
• C=CC(=O)N1CCC[C@@H](n2c(=O)c(-c3ccccc3)nc3cnc(Nc4ccc(N5CCN(C)CC5)cc4OC)nc32)C1 = 1.78

[A] C=CC(=O)N1CC[C@H](n2c(=O)c(-c3ccccc3)nc3cnc(Nc4ccc(N5CCN(C)CC5)cc4OC)nc32)C1
[B] C=CC(=O)Nc1cccc(-n2c(=O)cnc3cnc(Nc4ccc(N5CCN(C)CC5)c(OC)c4)nc32)c1
Endpoint returns whichever of A and B has the numerically higher IC50. Could you answer with the label of the item you picked?
A

----------
System: H1975 cells (EGFR L858R/T790M)
protocol_description: Inhibitory activity on cell proliferation, H1975
Format: cell-based
conditions_used: Homo sapiens, NCI-H1975; H1975, 72 hours; read-out: Inhibitory activity on proliferation of cells (IC50, μM) H1975
assay_metric: IC50 (µM)

* C=CC(=O)N1CC[C@H](n2c(=O)c(-c3ccccc3)nc3cnc(Nc4ccc(N(C)CCN(C)C)c(C)c4)nc32)C1 [Compound 40] | 1.05
* C=CC(=O)N1CC[C@H](n2c(=O)c(-c3ccccc3)nc3cnc(Nc4ccc(N5CCN(C)CC5)c(OC)c4)nc32)C1 [Compound 35] | 0.378
* C=CC(=O)Nc1cccc(-n2c(=O)c(-c3ccc(F)c(F)c3)nc3cnc(Nc4ccc(N5CCN(C)CC5)cc4OC)nc32)c1 [Compound 56] | 0.228
* C=CC(=O)N1CCC(n2c(=O)c(-c3ccccc3)nc3cnc(Nc4ccc(N5CCN(C)CC5)c(C)c4)nc32)C1 (stereo not shown) [Compound 49] | 0.368
* C=CC(=O)N1CC[C@H](n2c(=O)cnc3cnc(Nc4ccc(N5CCN(C)CC5)cc4OC)nc32)C1 [Compound 1] | 12.2

[a] C=CC(=O)Nc1cc(Nc2ncc3nc(C(C)C)c(=O)n(C)c3n2)c(OC)cc1N(C)CCN(C)C [Compound 23]
[b] C=CC(=O)N1CC[C@@H](n2c(=O)cnc3cnc(Nc4ccc(N5CCN(C)CC5)cc4OC)nc32)C1 [Compound 2]
Parameter metric = IC50. Return the lower-valued option from a and b . // respond with label for picked entry
a

----------
protocol_description: Determination of solubility in water (PBS 20 mM, pH 6.8)
Type: physicochemical
conditions_used: PBS buffer, aqueous buffer, thermodynamic from solid; pH 6.8, 20 mM PBS; read-out: Solubility (pH 6.8, g/mL)
assay_metric: solubility (µg/mL)

- C=CC(=O)N1CC[C@H](n2c(=O)cnc3cnc(Nc4ccc(N5CCN(C)CC5)c(C)c4)nc32)C1: 223
- C=CC(=O)Nc1cccc(-n2c(=O)cnc3cnc(Nc4ccc(CCN5CCN(C)CC5)cc4)nc32)c1: 280
- C=CC(=O)N1CCC(n2c(=O)cnc3cnc(Nc4ccc(N5CCN(C)CC5)cc4OC)nc32)CC1: 514

[A] C=CC(=O)N1CCC[C@@H](Cn2c(=O)cnc3cnc(Nc4ccc(N5CCN(C)CC5)cc4OC)nc32)C1
[B] Cc1cc(Nc2ncc3nc(-c4ccccc4)c(=O)n([C@H]4CCN(C(=O)/C=C/CN(C)C)C4)c3n2)ccc1N1CCN(C)CC1
[C] C=CC(=O)Nc1cccc(-n2c(=O)cnc3cnc(Nc4ccc(N(C)CCN(C)C)cc4OC)nc32)c1
# sort list by recorded solubility, greatest to least Returns: the labels arranged in the requested order.
A, B, C
(A: 956 µg/mL, B: 438 µg/mL, C: 208 µg/mL)

----------
system_under_test: EGFR-L858R/T790M (Homo sapiens, UniProt P00533, L858R/T790M)
Construct: purchased Invitrogen PV4879
Sequence (P00533 25-1210 T790M/L858R): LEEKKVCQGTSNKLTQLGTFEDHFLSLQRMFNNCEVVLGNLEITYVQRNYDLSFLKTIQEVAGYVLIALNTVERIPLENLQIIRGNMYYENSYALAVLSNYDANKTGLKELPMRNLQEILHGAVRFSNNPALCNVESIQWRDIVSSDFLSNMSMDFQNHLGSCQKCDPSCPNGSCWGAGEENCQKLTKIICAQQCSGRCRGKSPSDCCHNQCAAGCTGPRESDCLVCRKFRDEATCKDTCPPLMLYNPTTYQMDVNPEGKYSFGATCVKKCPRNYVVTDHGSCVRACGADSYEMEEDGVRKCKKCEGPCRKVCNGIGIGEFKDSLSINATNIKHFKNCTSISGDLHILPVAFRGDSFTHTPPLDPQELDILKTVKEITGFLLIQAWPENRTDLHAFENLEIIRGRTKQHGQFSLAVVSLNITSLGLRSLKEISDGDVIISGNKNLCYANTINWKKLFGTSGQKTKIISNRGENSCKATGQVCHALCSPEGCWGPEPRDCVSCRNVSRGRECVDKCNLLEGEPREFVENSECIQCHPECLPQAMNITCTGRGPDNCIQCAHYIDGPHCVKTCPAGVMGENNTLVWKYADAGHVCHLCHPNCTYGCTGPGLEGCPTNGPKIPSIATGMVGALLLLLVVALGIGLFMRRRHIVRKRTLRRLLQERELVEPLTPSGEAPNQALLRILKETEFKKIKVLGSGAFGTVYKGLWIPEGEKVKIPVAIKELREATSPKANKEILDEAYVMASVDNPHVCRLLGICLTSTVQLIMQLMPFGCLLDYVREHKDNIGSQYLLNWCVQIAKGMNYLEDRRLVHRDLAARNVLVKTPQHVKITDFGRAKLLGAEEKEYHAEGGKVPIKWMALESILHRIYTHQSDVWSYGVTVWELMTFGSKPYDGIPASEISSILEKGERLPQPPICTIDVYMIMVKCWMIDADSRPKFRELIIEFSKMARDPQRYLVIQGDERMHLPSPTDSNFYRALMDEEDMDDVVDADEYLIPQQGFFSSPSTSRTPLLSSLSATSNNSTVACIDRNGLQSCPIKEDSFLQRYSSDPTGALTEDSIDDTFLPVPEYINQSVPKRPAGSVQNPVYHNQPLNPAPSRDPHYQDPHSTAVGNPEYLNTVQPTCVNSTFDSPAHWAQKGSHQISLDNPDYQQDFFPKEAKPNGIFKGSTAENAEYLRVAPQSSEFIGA
protocol_description: Kinase activity test (FRET), EGFR T790M/L858R
Type: biochemical
conditions_used: EGFR T790M/L858R; read-out: Inhibitory activity of EGFR on kinase (IC50, nM) T790M/L858R
assay_metric: IC50 (nM)

The examples below pair each entry with its known result.
• C=CC(=O)Nc1cccc(-n2c(=O)c(C(C)C)nc3cnc(Nc4cc(C)c(N5CCN(C)CC5)cc4OC)nc32)c1 [Compound 39] = 82.2
• C=CC(=O)N1CC[C@H](n2c(=O)c(-c3ccccc3)nc3cnc(Nc4ccc(N5CCN(C)CC5)c(OC)c4)nc32)C1 [Compound 35] = 17.5
• C=CC(=O)Nc1cccc(-n2c(=O)c(-c3ccccc3)nc3cnc(Nc4ccc(N5CCC(N6CCN(C)CC6)CC5)cc4OC)nc32)c1 [Compound 48] = 20.8
• C=CC(=O)Nc1cccc(-n2c(=O)c(-c3ccccc3)nc3cnc(Nc4ccc(N5CCN(C)CC5)cc4OC)nc32)c1 [Compound 14] = 1
• C=CC(=O)Nc1cccc(-n2c(=O)cnc3cnc(Nc4cc(C)c(N5CCN(C)CC5)cc4OC)nc32)c1 [Compound 6] = 14.8
• C=CC(=O)N1CCC(n2c(=O)c(-c3ccccc3)nc3cnc(Nc4ccc(N5CCN(C)CC5)c(C)c4)nc32)C1 (centres unmarked) [Compound 49] = 14.2
• C=CC(=O)Nc1cccc(-n2c(=O)c(-c3ccc(OC)cc3)nc3cnc(Nc4ccc(N5CCN(C)CC5)cc4OC)nc32)c1 [Compound 54] = 3.5
• C=CC(=O)N1CC[C@H](n2c(=O)cnc3cnc(Nc4ccc(N5CCN(C)CC5)c(C)c4)nc32)C1 [Compound 34] = 896
• C=CC(=O)Nc1cccc(-n2c(=O)cnc3cnc(Nc4ccc(N5CCN(C)CC5)cc4OCCOC)nc32)c1 [Compound 10] = 191

[I] C=CC(=O)Nc1cccc(-n2c(=O)cnc3cnc(Nc4ccc(N5CCN(C(C)=O)CC5)cc4OC)nc32)c1 [Compound 7]
[II] C=CC(=O)N1CC[C@H](n2c(=O)c(-c3ccccc3)nc3cnc(Nc4ccc(N5CCN(C)CC5)c(C)c4)nc32)C1 [Compound 25]
[III] C=CC(=O)N1CC[C@H](n2c(=O)cnc3cnc(Nc4ccc(N5CCN(C)CC5)cc4OC)nc32)C1 [Compound 1]
// smallest IC50 at index 0, largest at the end Give the labels in the order specified.
II, I, III
(II: 1.5 nM, I: 9.5 nM, III: 129 nM)

----------
system_under_test: EGFR-L858R/T790M (Homo sapiens, UniProt P00533, L858R/T790M)
Construct: purchased Invitrogen PV4879
protocol_description: Kinase activity test (FRET), EGFR T790M/L858R
Format: biochemical
conditions_used: Compound 53 before and after resolution; read-out: Inhibitory IC50 means (nM) ± SD value on tyrosine kinase activity EGFR/T790M/L858R
assay_metric: IC50 (nM)

[A] C=CC(=O)N1CCC[C@@H](Cn2c(=O)c(-c3ccccc3)nc3cnc(Nc4ccc(N5CCN(C)CC5)cc4OC)nc32)C1 [53-1 (R)]
[B] C=CC(=O)N1CCC[C@H](Cn2c(=O)c(-c3ccccc3)nc3cnc(Nc4ccc(N5CCN(C)CC5)cc4OC)nc32)C1 [53-2 (S)]
Identify the entry with the larger IC50. Options: A and B Lab log: write the label of the selected item as the result.
A
(A: 295 nM, B: 15.2 nM)

----------
protocol_description: Determination of solubility in water (PBS 20 mM, pH 6.8)
Type: physicochemical
conditions_used: PBS buffer, aqueous buffer, thermodynamic from solid; pH 6.8, 20 mM PBS; read-out: Solubility (pH 6.8, g/mL)
assay_metric: solubility (µg/mL)

Known results for compounds:
- C=CC(=O)N1CC[C@H](n2c(=O)c(-c3ccccc3)nc3cnc(Nc4ccc(N5CCN(C)CC5)c(OC)c4)nc32)C1 [Compound 35]: 63.3
- C=CC(=O)Nc1cccc(-n2c(=O)cnc3cnc(Nc4ccc(N5CCN(C)CC5)cc4OCCOC)nc32)c1 [Compound 10]: 399
- C=CC(=O)N1CC[C@H](n2c(=O)cnc3cnc(Nc4ccc(N5CCN(C)CC5)cc4OC)nc32)C1 [Compound 1]: 1280
- C=CC(=O)Nc1cccc(-n2c(=O)cnc3cnc(Nc4ccc(N5CCC(N(C)C)CC5)cc4OC)nc32)c1 [Compound 12]: 369
- C=CC(=O)N1CC[C@H](n2c(=O)c(-c3ccccc3)nc3cnc(Nc4ccc(N5CCN(C)CC5)c(C)c4)nc32)C1 [Compound 25]: 56.7

[a] C=CC(=O)Nc1cccc(-n2c(=O)cnc3cnc(Nc4ccc(N5CCN(C)CC5)cc4OCOC)nc32)c1 [Compound 9]
[b] C=CC(=O)N1CC[C@H](n2c(=O)c(C(C)C)nc3cnc(Nc4ccc(N5CCN(C)CC5)c(C)c4)nc32)C1 [Compound 24]
[c] C=CC(=O)N1CCC[C@H](Cn2c(=O)cnc3cnc(Nc4ccc(N5CCN(C)CC5)cc4OC)nc32)C1 [Compound 17]
Output the entries ranked by solubility from maximum down to minimum. Put the labels in the requested order and write them down.
b, c, a
